Source of measurements: ChEMBL document CHEMBL1201862

- Tested on: RXF 393
- EXPERIMENT NOTES: NCI tumour cell line growth inhibition, 48 h
Active and inactive are the calls of the source. Cut-off read from the data, not from the text of the source: active = GI50 up to about 1.1 µM and inactive = higher.
EXPERIMENTAL READOUT: GI50

Here's what some known entries look like.
COc1ccc(C2SCC(=O)N2c2ccc(-c3ccc(-n4c(-c5ccccc5)nc5ccccc5c4=O)cc3)cc2)cc1OC (centres undefined) : > 100 µM (inactive)
O=S(=O)(O)c1cc(/N=N/c2c(O)ccc3ccccc23)ccc1/C=C/c1ccc(/N=N/c2c(O)ccc3ccccc23)cc1S(=O)(=O)O : > 100 µM (inactive)
O=C(COc1ccc(/C=C/C(=O)c2ccc(Cl)cc2)cc1)Nc1c(Cl)cccc1Cl : 36 µM (inactive)
CS(=O)(=O)c1nc(Cl)c(Cl)c(C#N)c1Cl : 1.61 µM (inactive)

(Q) Give recorded GI50 with RXF 393 for the following molecule: `CCOC(=O)c1[nH]cc(C)c1-c1c[nH]c2ccccc12`
(A) 30.1 µM (inactive)

(Q) Continue with `O=C(c1ccccc1)n1c(Cc2ccccc2)nc2cc(C34CC5CC(CC(C5)C3)C4)ccc21`
(A) 27.4 µM (inactive)

* * *

- Test system: MDA-N
- EXPERIMENT NOTES: NCI tumour cell line growth inhibition, 48 h
Activity calls are given as the source filed them. Cut-off read from the data, not from the text of the source: active = GI50 up to about 1.1 µM and inactive = higher.
Return exactly one item of true (active), false (inactive)

CCOC(=O)c1c(CN2CCOCC2)n(Cc2ccccc2)c2c1cc(O)c1nc(C)c(C)nc12 : false
Cn1nc(/C=C\C(=O)N2CC(CCl)c3c2cc(N)c2ccccc32)cc1/C=C/C(=O)N1CC(CCl)c2c1cc(N)c1ccccc21 (stereo not given) : true

Here is another compound to look at.
(Q) Outcome? `c1ccc2c(-c3cnc(-c4c[nH]c5ccccc45)cn3)c[nH]c2c1`
(A) false

* * *

- System: NCI/ADR-RES
- EXPERIMENT NOTES: NCI tumour cell line growth inhibition, 48 h
Active and inactive are the calls of the source. Cut-off read from the data, not from the text of the source: active = GI50 up to about 1.1 µM and inactive = higher.
EXPERIMENTAL READOUT: GI50

Here's what some known entries look like.
CN(C)c1ccc(/C=C2\C[C@H]3[C@@H]4CCc5cc(O)ccc5[C@H]4CC[C@]3(C)C2=O)cc1 : > 100 µM (inactive)
Cc1cn(C2CC(O)C(Cn3nncc3Cn3ccc(=O)[nH]c3=O)O2)c(=O)[nH]c1=O (centres undefined) : > 100 µM (inactive)
CCO[C@H]1O[C@@H]2OC3(C)CCC4[C@H](C)CCC([C@H]1C)[C@]42OO3 (some centres undefined) : 23 µM (inactive)
Cc1cccc(NC(Nc2cccc(C)c2)=C(C(Cl)=C(Cl)Cl)[N+](=O)[O-])c1 : 14 µM (inactive)

(Q) Which GI50 value is on record for CC1=NNC(=O)C1C1CC(c2c[nH]c3ccccc23)=NNC1=O (centres undefined) ?
(A) > 100 µM (inactive)

(Q) Continue with `CCNc1cc2c(cc1O)CC[C@@H]1[C@@H]2CC[C@]2(C)[C@@H](O)CC[C@@H]12`
(A) 1.04 µM (active)

* * *

- Tested on: SK-OV-3
- EXPERIMENT NOTES: NCI tumour cell line growth inhibition, 48 h
Activity calls are given as the source filed them. Cut-off read from the data, not from the text of the source: active = GI50 up to about 1.1 µM and inactive = higher.
// reported GI50 per item

C=C(CN(CC(=C)C(=O)c1ccccc1)C(C)(C)C)C(=O)c1ccccc1 : 18.4 µM (inactive)
CCN(CC)c1ccc(Cl)c2c1C(O)(C(C)C)C2(C)C (stereo unspecified) : 15.6 µM (inactive)
N#CC1(C#N)C2C=CC(c3coc4cccc2c34)C1(C#N)C#N (stereo unspecified) : 17.7 µM (inactive)

(Q) Which GI50 value is on record for `O=C(O)c1cc(N(Cc2ccccc2O)Cc2cc(O)ccc2O)ccc1O` ?
(A) > 100 µM (inactive)

(Q) Continue with `CCCCSC(=CC(=O)c1cccc(C(=O)C=C(SCCCC)SCCCC)n1)SCCCC`
(A) > 100 µM (inactive)

(Q) Continue with CN1c2ccccc2NC(CC(=O)O)C2CC=CN21 (stereo unspecified)
(A) > 100 µM (inactive)
